Target: T1, Human CD137 ECD (human)
T1 construct: also called 4-1BB
T1 sequence (chain, as listed by the source limits assumed): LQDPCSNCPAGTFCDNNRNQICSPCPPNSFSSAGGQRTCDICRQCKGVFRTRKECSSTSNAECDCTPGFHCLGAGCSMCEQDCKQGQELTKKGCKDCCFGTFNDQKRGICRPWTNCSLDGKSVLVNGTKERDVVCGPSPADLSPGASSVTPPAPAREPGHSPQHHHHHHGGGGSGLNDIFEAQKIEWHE
Assay: single mutant vs template dBBDu183H
Overview of reported fold change of affinity across a group of binders:
Express the result in fold but write the number alone.

H183/L072 VH K52Y (antibody, name in Kabat numbering, V domains shown) VH: QVQLVESGGGLVQPGRSLRLSCAASGFTFSNAWMHWVRQAPGKGLEWVAQIYDKGNAYAAYYAPSVKGRFTISRDDSKNSIYLQMNSLKTEDTAVYYCHYVHYASASTVLPAFGVDAWGQGTTVTVSS VL: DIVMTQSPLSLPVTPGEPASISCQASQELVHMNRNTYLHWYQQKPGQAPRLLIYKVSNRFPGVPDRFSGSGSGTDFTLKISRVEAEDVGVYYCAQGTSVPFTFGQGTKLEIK = 0
H183/L072 VH V100cM (antibody, name in Kabat numbering, V domains shown) VH: QVQLVESGGGLVQPGRSLRLSCAASGFTFSNAWMHWVRQAPGKGLEWVAQIKDKGNAYAAYYAPSVKGRFTISRDDSKNSIYLQMNSLKTEDTAVYYCHYVHYASASTMLPAFGVDAWGQGTTVTVSS VL: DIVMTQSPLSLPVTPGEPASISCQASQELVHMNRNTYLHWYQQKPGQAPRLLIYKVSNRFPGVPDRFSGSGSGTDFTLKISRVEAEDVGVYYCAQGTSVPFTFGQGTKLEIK = 1.3

Consider now this further binder.
INPUT: Any idea what its fold change of affinity is? The binder is H183/L072 VH Y55M (antibody, name in Kabat numbering, V domains shown) VH: QVQLVESGGGLVQPGRSLRLSCAASGFTFSNAWMHWVRQAPGKGLEWVAQIKDKGNAMAAYYAPSVKGRFTISRDDSKNSIYLQMNSLKTEDTAVYYCHYVHYASASTVLPAFGVDAWGQGTTVTVSS VL: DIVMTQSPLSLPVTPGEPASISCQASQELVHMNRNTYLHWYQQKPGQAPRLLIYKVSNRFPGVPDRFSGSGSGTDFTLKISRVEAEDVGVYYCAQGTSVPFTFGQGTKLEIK
OUTPUT: 0.4
